Target: CYP3A (Homo sapiens, UniProt P08684+P20815+P24462+Q9HB55)
Test: Inhibition of CYP3A in human liver microsomes assessed as midazolam 1'- hydroxylation after 5 mins
Assay type: ADME, Microsome
Conditions: probe midazolam (1'-hydroxylation)
Readout Label: IC50 at 5 min
// unit must come after the numeric part

Please fill in: IC50 at 5 min reported for C[C@@H](c1ncncc1F)[C@](O)(Cn1cncn1)c1ccc(F)cc1F [VORICONAZOLE] = 2900 nM

###

Biological target: Cytochrome P450 2B6 (Homo sapiens)
Sequence (P20813 whole entry): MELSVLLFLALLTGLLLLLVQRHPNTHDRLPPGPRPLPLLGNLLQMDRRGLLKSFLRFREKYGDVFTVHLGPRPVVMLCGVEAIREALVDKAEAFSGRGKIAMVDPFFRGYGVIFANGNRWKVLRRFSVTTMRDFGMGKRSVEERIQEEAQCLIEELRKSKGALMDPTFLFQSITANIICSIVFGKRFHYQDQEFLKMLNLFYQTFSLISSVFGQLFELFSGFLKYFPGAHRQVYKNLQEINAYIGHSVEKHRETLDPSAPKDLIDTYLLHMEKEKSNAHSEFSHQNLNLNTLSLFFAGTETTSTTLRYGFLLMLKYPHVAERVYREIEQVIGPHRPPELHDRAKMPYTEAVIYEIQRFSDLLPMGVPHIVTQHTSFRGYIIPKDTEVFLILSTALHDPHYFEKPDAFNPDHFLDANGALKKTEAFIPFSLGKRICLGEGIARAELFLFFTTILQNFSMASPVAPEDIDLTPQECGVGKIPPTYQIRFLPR
Assay: Inhibition of CYP2B6 in human liver microsomes using efavirenz as probe after 10 mins
Assay type: ADME, Microsome
Readout Label: IC50

Sure, the documented IC50 for C[C@@H](c1ncncc1F)[C@](O)(Cn1cncn1)c1ccc(F)cc1F is 1710 nM

// provenance: ChEMBL document CHEMBL1629616
